FYI, the data here is from patent US7507739B2.

Here the recorded Percent in Cell Cycle Phase G1 is given for each entry.
system: HeLa cells; experiment: Cell cycle analysis with HeLa cells; format: cell-based, human; details: 18 hr, 60 nM
Reply numerically in %, unit not repeated.

// solved cases for Percent in Cell Cycle Phase G1 follow
CNCCCOc1cc(F)c(-c2c(Cl)nc3ncnn3c2NCC(F)(F)F)c(F)c1.Cl [Example 3a]
4
CNCCCOc1cc(F)c(-c2c(Cl)nc3ncnn3c2N[C@@H](C)C(F)(F)F)c(F)c1.Cl [Example 2a]
4
C[C@H](Nc1c(-c2c(F)cc(OCCCN(C)C)cc2F)c(Cl)nc2ncnn12)C(F)(F)F.Cl [Example 1a]
5

Now take the following compound into account.
The compound listed as CN(C)CCCOc1cc(F)c(-c2c(Cl)nc3ncnn3c2NCC(F)(F)F)c(F)c1.Cl [Example 4a] shows Percent in Cell Cycle Phase G1 equal to 13

###

tested on: KB-V1 cells; assay: MTS cytotoxicity test with KB-V1 cells (very high P-glycoprotein); format: cell-based, human; conditions: Homo sapiens; KB-V1 cells, MTS
quantity-name: IC50

C[C@H](Nc1c(-c2c(F)cc(OCCCN(C)C)cc2F)c(Br)nc2ncnn12)C(F)(F)F
165 nM
C[C@H](Nc1c(-c2c(F)cc(OCCCO)cc2F)c(Cl)nc2ncnn12)C(F)(F)F
73 nM
CN(C)CCCOc1cc(F)c(-c2c(Cl)nc3ncnn3c2NCC(F)(F)F)c(F)c1.Cl
162 nM

The compound listed as COc1cccc2c1C(=O)c1c(O)c3c(c(O)c1C2=O)C[C@@](O)(C(=O)CO)C[C@@H]3O[C@H]1C[C@H](N)[C@H](O)[C@H](C)O1 [Doxorubicin, reference compound] shows IC50 equal to > 3000 nM

The compound listed as CC[C@]1(O)C[C@H]2CN(CCc3c([nH]c4ccccc34)[C@@](C(=O)OC)(c3cc4c(cc3OC)N(C=O)[C@H]3[C@@](O)(C(=O)OC)[C@H](OC(C)=O)[C@]5(CC)C=CCN6CC[C@]43[C@@H]65)C2)C1 [Vincristine, reference compound] shows IC50 equal to > 1000 nM

The compound listed as OCCCOc1cc(F)c(-c2c(Cl)nc3ncnn3c2C2CCCCCC2)c(F)c1 shows IC50 equal to 97 nM

###

system: S1-M1 cells; assay: MTS cytotoxicity test with S1-M1 cells (MXR); format: cell-based, human; conditions: IC50 on S1-M1 cells/IC50 on S1 cells
Here the recorded Ratio is given for each entry.
I'd appreciate a reply containing only the number, no unit.

// solved cases for Ratio follow
CC(=O)O[C@H]1C(=O)[C@@]2(C)[C@H]([C@H](OC(=O)c3ccccc3)[C@]3(O)C[C@H](OC(=O)[C@H](O)[C@@H](NC(=O)c4ccccc4)c4ccccc4)C(C)=C1C3(C)C)[C@]1(OC(C)=O)CO[C@@H]1C[C@@H]2O [Paclitaxel, reference compound]
0.54
C[C@H](Nc1c(-c2c(F)cc(OCCCN(C)C)cc2F)c(Cl)nc2ncnn12)C(F)(F)F.Cl
1.0
CC[C@]1(O)C[C@H]2CN(CCc3c([nH]c4ccccc34)[C@@](C(=O)OC)(c3cc4c(cc3OC)N(C=O)[C@H]3[C@@](O)(C(=O)OC)[C@H](OC(C)=O)[C@]5(CC)C=CCN6CC[C@]43[C@@H]65)C2)C1 [Vincristine, reference compound]
0.82
COc1cccc2c1C(=O)c1c(O)c3c(c(O)c1C2=O)C[C@@](O)(C(=O)CO)C[C@@H]3O[C@H]1C[C@H](N)[C@H](O)[C@H](C)O1 [Doxorubicin, reference compound]
74
CC[C@@]1(O)C(=O)OCc2c1cc1n(c2=O)Cc2cc3ccccc3nc2-1 [Camptothecin, reference compound]
1.9
CNCCCOc1cc(F)c(-c2c(Cl)nc3ncnn3c2C2CCCCCC2)c(F)c1.O=C(O)C(F)(F)F
0.80
CNCCCOc1cc(F)c(-c2c(Cl)nc3ncnn3c2NCC(F)(F)F)c(F)c1.Cl
1.2
CN(C)CCCOc1cc(F)c(-c2c(Cl)nc3ncnn3c2NCC(F)(F)F)c(F)c1.Cl
1.0
C[C@H](Nc1c(-c2c(F)cc(OCCCO)cc2F)c(Cl)nc2ncnn12)C(F)(F)F
1.1
CNCCCOc1cc(F)c(-c2c(Cl)nc3ncnn3c2N[C@@H](C)C(F)(F)F)c(F)c1.Cl
1.0

The compound listed as C[C@H](Nc1c(-c2c(F)cc(OCCCN(C)C)cc2F)c(Br)nc2ncnn12)C(F)(F)F shows Ratio equal to 0.80

The compound listed as OCCCOc1cc(F)c(-c2c(Cl)nc3ncnn3c2C2CCCCCC2)c(F)c1 shows Ratio equal to 1.2

###

system: HeLa cells; assay: Cell cycle analysis with HeLa cells; assay type: cell-based, human; details: 18 hr, 40 nM
Here the recorded Percent in Cell Cycle Phase S is given for each entry.
Reply numerically in %, unit not repeated.

CNCCCOc1cc(F)c(-c2c(Cl)nc3ncnn3c2N[C@@H](C)C(F)(F)F)c(F)c1.Cl
9
CN(C)CCCOc1cc(F)c(-c2c(Cl)nc3ncnn3c2NCC(F)(F)F)c(F)c1.Cl
8
CNCCCOc1cc(F)c(-c2c(Cl)nc3ncnn3c2NCC(F)(F)F)c(F)c1.Cl
10

The molecule listed as CC[C@]1(O)C[C@H]2CN(CCc3c([nH]c4ccccc34)[C@@](C(=O)OC)(c3cc4c(cc3OC)N(C=O)[C@H]3[C@@](O)(C(=O)OC)[C@H](OC(C)=O)[C@]5(CC)C=CCN6CC[C@]43[C@@H]65)C2)C1 [Vincristine, reference compound] shows Percent in Cell Cycle Phase S equal to 13

The molecule listed as C[C@H](Nc1c(-c2c(F)cc(OCCCN(C)C)cc2F)c(Cl)nc2ncnn12)C(F)(F)F.Cl shows Percent in Cell Cycle Phase S equal to 8

The molecule listed as COc1cc2c(c(OC)c1OC)-c1ccc(OC)c(=O)cc1[C@@H](NC(C)=O)CC2 [Colchicine, reference compound] shows Percent in Cell Cycle Phase S equal to 22

###

Here the recorded Percent in Cell Cycle Phase S is given for each entry.
tested on: HeLa cells; assay: Cell cycle analysis with HeLa cells; assay type: cell-based, human; settings: 18 hr, 20 nM
Reply numerically in %, unit not repeated.

// solved cases for Percent in Cell Cycle Phase S follow
CC[C@]1(O)C[C@H]2CN(CCc3c([nH]c4ccccc34)[C@@](C(=O)OC)(c3cc4c(cc3OC)N(C=O)[C@H]3[C@@](O)(C(=O)OC)[C@H](OC(C)=O)[C@]5(CC)C=CCN6CC[C@]43[C@@H]65)C2)C1 [Vincristine, reference compound]
12
CNCCCOc1cc(F)c(-c2c(Cl)nc3ncnn3c2N[C@@H](C)C(F)(F)F)c(F)c1.Cl
14
CC(=O)O[C@@]12CO[C@@H]1C[C@H](O)[C@@]1(C)C(=O)[C@H](O)C3=C(C)[C@@H](OC(=O)[C@H](O)[C@@H](NC(=O)OC(C)(C)C)c4ccccc4)C[C@@](O)([C@@H](OC(=O)c4ccccc4)[C@H]21)C3(C)C [Docetaxel, reference compound]
12
CNCCCOc1cc(F)c(-c2c(Cl)nc3ncnn3c2NCC(F)(F)F)c(F)c1.Cl
12
CN(C)CCCOc1cc(F)c(-c2c(Cl)nc3ncnn3c2NCC(F)(F)F)c(F)c1.Cl
17

Now take the following compound into account.
The compound listed as C[C@H](Nc1c(-c2c(F)cc(OCCCN(C)C)cc2F)c(Cl)nc2ncnn12)C(F)(F)F.Cl shows Percent in Cell Cycle Phase S equal to 18

###

test system: HeLa cells; experiment: Cell cycle analysis with HeLa cells; type: cell-based, human; details: 18 hr, 80 nM
Here the recorded Percent in Cell Cycle Phase G1 is given for each entry.
Reply numerically in %, unit not repeated.

// solved cases for Percent in Cell Cycle Phase G1 follow
C[C@H](Nc1c(-c2c(F)cc(OCCCN(C)C)cc2F)c(Cl)nc2ncnn12)C(F)(F)F.Cl [Example 1a]
4
CNCCCOc1cc(F)c(-c2c(Cl)nc3ncnn3c2N[C@@H](C)C(F)(F)F)c(F)c1.Cl [Example 2a]
7
CN(C)CCCOc1cc(F)c(-c2c(Cl)nc3ncnn3c2NCC(F)(F)F)c(F)c1.Cl [Example 4a]
5

Now take the following compound into account.
# value of Percent in Cell Cycle Phase G1, HeLa cells, item CNCCCOc1cc(F)c(-c2c(Cl)nc3ncnn3c2NCC(F)(F)F)c(F)c1.Cl [Example 3a] = 5

###

test system: KB-V1 cells; assay: MTS cytotoxicity test with KB-V1 cells (very high P-glycoprotein); type: cell-based, human; conditions: Homo sapiens; KB-V1 cells, MTS
quantity-name: pIC50
Worth noting: pIC50 values are minus log10 of concentrations stated in mol/L.

// solved cases for pIC50 follow
CNCCCOc1cc(F)c(-c2c(Cl)nc3ncnn3c2N[C@@H](C)C(F)(F)F)c(F)c1.Cl
5.95
C[C@H](Nc1c(-c2c(F)cc(OCCCN(C)C)cc2F)c(Cl)nc2ncnn12)C(F)(F)F.Cl
6.99

The compound listed as CNCCCOc1cc(F)c(-c2c(Cl)nc3ncnn3c2NCC(F)(F)F)c(F)c1.Cl shows pIC50 equal to 5.67

The compound listed as CNCCCOc1cc(F)c(-c2c(Cl)nc3ncnn3c2C2CCCCCC2)c(F)c1.O=C(O)C(F)(F)F [Example 32, trifluoroacetic acid salt] shows pIC50 equal to 6.97

The compound listed as CC[C@@]1(O)C(=O)OCc2c1cc1n(c2=O)Cc2cc3ccccc3nc2-1 [Camptothecin, reference compound] shows pIC50 equal to 7.41
